Data credit: paper PMC8977893

- assayed-target: fibrinogen from human plasma (human, UniProt P02671 36-866; P02675 45-491; P02679 27-453)
- run-description: SPR
- condition-info: both partners purified
measurement-label: Kd (nM)
Entry rule: numbers only, all in nM.

Can you look up the measured Kd of KTNMKHMAGAAAAGAVVGGLG (also called prion peptide; prion) [PrP(106–126)] for me?
512
